Ki data for UniProtKB P23458 follow.
Sequence (P23458 whole entry): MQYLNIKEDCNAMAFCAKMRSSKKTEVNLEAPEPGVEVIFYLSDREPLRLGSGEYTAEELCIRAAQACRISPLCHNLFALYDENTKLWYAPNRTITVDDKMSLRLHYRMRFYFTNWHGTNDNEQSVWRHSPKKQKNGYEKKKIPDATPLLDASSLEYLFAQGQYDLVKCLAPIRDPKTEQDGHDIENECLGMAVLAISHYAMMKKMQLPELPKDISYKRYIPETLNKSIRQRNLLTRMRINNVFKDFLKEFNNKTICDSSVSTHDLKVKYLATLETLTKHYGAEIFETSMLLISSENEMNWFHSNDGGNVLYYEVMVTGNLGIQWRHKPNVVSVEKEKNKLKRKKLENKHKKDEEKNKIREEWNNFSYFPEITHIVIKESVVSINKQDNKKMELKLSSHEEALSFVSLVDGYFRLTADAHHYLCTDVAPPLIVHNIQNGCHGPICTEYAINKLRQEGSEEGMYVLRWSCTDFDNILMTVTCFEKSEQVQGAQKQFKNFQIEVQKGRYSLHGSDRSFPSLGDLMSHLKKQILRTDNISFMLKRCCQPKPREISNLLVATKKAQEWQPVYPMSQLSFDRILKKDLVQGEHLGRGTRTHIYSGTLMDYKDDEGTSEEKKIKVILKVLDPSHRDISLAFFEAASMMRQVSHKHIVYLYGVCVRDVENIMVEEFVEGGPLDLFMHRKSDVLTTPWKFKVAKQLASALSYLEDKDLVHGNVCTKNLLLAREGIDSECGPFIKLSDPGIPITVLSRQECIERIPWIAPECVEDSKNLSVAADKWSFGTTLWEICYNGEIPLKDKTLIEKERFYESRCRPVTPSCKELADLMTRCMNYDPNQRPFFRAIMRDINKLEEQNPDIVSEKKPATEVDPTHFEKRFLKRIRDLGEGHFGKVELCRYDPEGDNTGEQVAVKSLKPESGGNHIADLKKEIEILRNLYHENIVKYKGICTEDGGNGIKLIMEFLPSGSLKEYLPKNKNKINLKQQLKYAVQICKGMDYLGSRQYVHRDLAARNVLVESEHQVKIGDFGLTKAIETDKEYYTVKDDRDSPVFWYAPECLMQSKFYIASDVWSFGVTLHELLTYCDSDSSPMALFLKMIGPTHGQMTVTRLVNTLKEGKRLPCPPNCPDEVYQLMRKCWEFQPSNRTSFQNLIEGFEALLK
quantity kind: Ki (nM)

// query May I ask what Ki has been recorded for O=C(Nc1c[nH]nc1-c1cc(Cl)ccc1OC(F)F)c1cncc2ccoc12 ?
// result 1.8

I. COc1cc(F)c(Cl)cc1-c1n[nH]cc1NC(=O)c1cnn2cccnc12
II. O=C(Nc1c[nH]nc1-c1cc(Cl)c(O)cc1OC(F)F)c1cnn2cccnc12
// query So which one has the bigger Ki here, I or II ? # answer = label of selected item
// result I
(I: 2.2 nM, II: 0.11 nM)

* * *

# target under test: Janus Kinase (JAK) (Homo sapiens, UniProt P52333+P23458+O60674+P29597)
# condition info: beas-2b
# Description: Inhibition of JAK in human BEAS-2B cells assessed as reduction in IL13-induced STAT6 phosphorylation incubated for 1 hr followed by IL13 addition and measured after 15 mins by immunofluorescence assay
quantity kind: IC50 (nM)

// solved cases for IC50 follow
// query Requested read-out: IC50. Entry: O=C(Nc1c[nH]nc1-c1cc(Cl)ccc1OC(F)F)c1cncc2ccoc12
// result 36

// query Any idea what IC50 was measured for O=C(Nc1c[nH]nc1-c1cc(Cl)ccc1OC(F)F)c1cnn2cccnc12 ?
// result 5.2

a. O=C(Nc1c[nH]nc1-c1cc(Br)ccc1OC(F)F)c1cnn2cccnc12
b. CSc1ccc(Cl)cc1-c1nn(C)cc1NC(=O)c1cnn2cccnc12
c. O=C(Nc1c[nH]nc1-c1cc(Cl)ccc1SC(F)F)c1cnn2cccnc12
// query Please rank these compounds by IC50 in descending order. Write the labels, ordered according to the request.
// result c, b, a

* * *

# target under test: Janus Kinase (JAK) (Homo sapiens, UniProt P52333+P23458+O60674+P29597)
# condition info: beas-2b
quantity kind: IC50 (µM)

Illustrative cases are given below, each with its answer.
// query Bench note: what IC50 did O=C(Nc1c[nH]nc1-c1cc(Cl)ccc1OC(F)F)c1cncc2c[nH]nc12 show?
// result 0.018

// query Name the reported IC50 value associated with the compound COc1cc(O)c(Cl)cc1-c1n[nH]cc1NC(=O)c1cnn2cccnc12
// result 0.14

// query Given the compound Cc1ccn2ncc(C(=O)Nc3c[nH]nc3-c3cc(Cl)ccc3OC(F)F)c2n1 , what is its reported IC50?
// result 0.034

// query Can you look up the measured IC50 of O=C(Nc1c[nH]nc1-c1cc(Cl)ccc1OC(F)F)c1snc2cccnc12 for me?
// result 0.02

// query IC50 for O=C(Nc1c[nH]nc1-c1cc2ccccc2cc1OC(F)F)c1cnn2cccnc12 ?
// result 0.0064

A. N#Cc1ccc(OC(F)F)c(-c2n[nH]cc2NC(=O)c2cnn3cccnc23)c1
B. O=C(Nc1c[nH]nc1-c1cc(Cl)ccc1OC(F)(F)F)c1cnn2cccnc12
// query Of the two listed items, which has the higher IC50? First: A Second: B // caller expects the label of the chosen entry
// result B
